Listing of recorded Neuraminidase activity normalized to vehicle by entry.
Tested on: influenza A H1N1 virus
Conditions: 0,823 µM peptide, 48 hr post-treatment, A549
No end group written: not given here.

Use these answered entries as a reference point.
substance="CPEP136: peptide of the viral peptide library; sequence page not shown (VTNDCPNSSIVYE)" measurement_target="influenza A H1N1 virus" obs_value=0,8343
substance="EVVLFLLNVF [CPEP31]" measurement_target="influenza A H1N1 virus" obs_value=0,7352
substance="EDPNEE [CPEP68]" measurement_target="influenza A H1N1 virus" obs_value=0,7462
substance="AHQNSQTHQASLSKQ [CPEP43]" measurement_target="influenza A H1N1 virus" obs_value=0,7858
substance="SEWQRDQFLSQVK [CPEP95]" measurement_target="influenza A H1N1 virus" obs_value=0,9256

-- ask What value of Neuraminidase activity normalized to vehicle has been recorded for this entry: CPEP98: peptide of the viral peptide library; sequence page not shown (PLPPTKAPPIPPPR)
-- reply 0,8951

-- ask What value of Neuraminidase activity normalized to vehicle has been recorded for this entry: GRPPLPPKQK [CPEP41]
-- reply 1,0727

-- ask What value of Neuraminidase activity normalized to vehicle has been recorded for this entry: CPEP140: peptide of the viral peptide library; sequence page not shown (RKKRRQRRRA)
-- reply 0,9961

-- ask What value of Neuraminidase activity normalized to vehicle has been recorded for this entry: WGCSGKLICTTTVPW [CPEP84]
-- reply 0,9093

-- ask What value of Neuraminidase activity normalized to vehicle has been recorded for this entry: DKELYPLTSLRSLFG [CPEP65]
-- reply 0,8623
